Let's go through some recorded IC50 values for Sodium-dependent serotonin transporter (Homo sapiens, UniProt P31645) together.
Dear colleague, please return just the value in nM, with no unit written.

Field: example entries. Status: answers known.
COC(=O)C1C2CCC(CC1c1ccc(Cl)c(Cl)c1)N2 (configuration not stated): 1.4
COC(=O)C1C(c2ccc(Cl)c(Cl)c2)CC2CCC1N2C (configuration not stated): 2.47
COC(=O)[C@H]1[C@@H](c2ccc(F)cc2)C[C@H]2CC[C@H]1N2C: 160

Recorded IC50 (compound COC(=O)C1C(c2cccc(I)c2)CC2CCC1N2C (configuration not stated) ): 9.88

Reported IC50 for COC(=O)C1C2CCC(CC1c1ccc(Cl)cc1)N2 (configuration not stated) was 1.63

Reported IC50 of COC(=O)C1C(c2cccc(Br)c2)CC2CCC1N2C (configuration not stated) : 20.4

# IC50 (compound: COC(=O)C1C(c2ccc(I)cc2)CC2CCC1N2C (configuration not stated) ) is 2.53
